The entries below are paired with their reported Activity.
# Tested on: PANC-1
# Experiment: Induction of apoptosis in human PANC1 cells assessed as sub-diploid DNA content at 1 uM after 120 hrs by FACS relative to control
# Assay type: functional

// solved cases for Activity follow
CC1=C2C(=CC(C)(C)[C@@H]2OC(=O)C2C3CCC(O3)C2C(=O)O[C@@H]2C3=C(C)C4(CC4)[C@@](C)(O)C(=O)C3=CC2(C)C)C(=O)[C@](C)(O)C12CC2 (some centres undefined) [BIS(ILLUDINYL M) ENDOTHALLATE] ... 74%
CC1=C2C(=CC(C)(C)[C@@H]2O)C(=O)[C@](C)(O)C12CC2 ... 86%
CC1=C2C(=CC(C)(C)[C@@H]2OC(=O)CCCc2ccc(N(CCCl)CCCl)cc2)C(=O)[C@](C)(O)C12CC2 ... 36.8%

With those in mind, consider the next molecule.
Please report Activity for the following molecule: CC/C=C\C/C=C\C/C=C\C/C=C\C/C=C\C/C=C\CCC(=O)O[C@@H]1C2=C(C)C3(CC3)[C@@](C)(O)C(=O)C2=CC1(C)C
2.6%

----------
# Tested on: HFF
# Experiment: Induction of apoptosis in HFF cells assessed as sub-diploid DNA content at 1 uM after 120 hrs by FACS relative to control
# Type: cell-based
# Condition Set: human
Classification field: met = Activity at or over 10%; not met = Activity under 10%.

Worked set:
CC1=C2C(=CC(C)(C)[C@@H]2OC(=O)C2C3CCC(O3)C2C(=O)O[C@@H]2C3=C(C)C4(CC4)[C@@](C)(O)C(=O)C3=CC2(C)C)C(=O)[C@](C)(O)C12CC2 (stereo not given in full) [BIS(ILLUDINYL M) ENDOTHALLATE] ... met
CC1=C2C(=CC(C)(C)[C@@H]2OC(=O)CCCc2ccc(N(CCCl)CCCl)cc2)C(=O)[C@](C)(O)C12CC2 ... not met
CC/C=C\C/C=C\C/C=C\C/C=C\C/C=C\C/C=C\CCC(=O)O[C@@H]1C2=C(C)C3(CC3)[C@@](C)(O)C(=O)C2=CC1(C)C [DOCOSAHEXAENOYL ILLUDIN M] ... not met

Record CC1=C2C(=CC(C)(C)[C@@H]2OC(=O)c2ccc(-c3ccc(C(=O)O[C@@H]4C5=C(C)C6(CC6)[C@@](C)(O)C(=O)C5=CC4(C)C)cn3)nc2)C(=O)[C@](C)(O)C12CC2 ; criterion: Activity no lower than 10%. Met?
met

Assess whether reported Activity for CC1=C2C(=CC(C)(C)[C@@H]2O)C(=O)[C@](C)(O)C12CC2 [ILLUDIN M] sits at 10% or higher.
met

----------
Entries annotated with measured viability at 1 µM
# Tested on: HT-29
# Experiment: Cytotoxicity against human HT-29 cells assessed as viable cells at 1 uM after 120 hrs by trypan blue exclusion assay relative to control
# Type: functional
# Condition Set: HT-29, 120 h, read-out: Activity
Express your answer in %, writing the number without its unit.

Give the reported viability at 1 µM for this molecule. CC1=C2C(=CC(C)(C)[C@@H]2O)C(=O)[C@](C)(O)C12CC2
3.8

Report measured viability at 1 µM; entry is CC1=C2C(=CC(C)(C)[C@@H]2OC(=O)CCCc2ccc(N(CCCl)CCCl)cc2)C(=O)[C@](C)(O)C12CC2
42.7

Supply reported viability at 1 µM belonging to this molecule: CC1=C2C(=CC(C)(C)[C@@H]2OC(=O)C2C3CCC(O3)C2C(=O)O[C@@H]2C3=C(C)C4(CC4)[C@@](C)(O)C(=O)C3=CC2(C)C)C(=O)[C@](C)(O)C12CC2 (some centres undefined) [BIS(ILLUDINYL M) ENDOTHALLATE]
3

Output viability at 1 µM of CC/C=C\C/C=C\C/C=C\C/C=C\C/C=C\C/C=C\CCC(=O)O[C@@H]1C2=C(C)C3(CC3)[C@@](C)(O)C(=O)C2=CC1(C)C
111

----------
# Experiment: Cytotoxicity against HFF cells assessed as viable cells at 1 uM after 48 hrs by trypan blue exclusion assay relative to control
# Type: cell-based
# Condition Set: human, read-out: Activity
Item-by-item account of viability at 48 h, 1 µM
// note: answer is a bare numeric in %

CC1=C2C(=CC(C)(C)[C@@H]2O)C(=O)[C@](C)(O)C12CC2 ... 39

Please examine the following record next.
Provide one value: measured viability at 48 h, 1 µM of CC1=C2C(=CC(C)(C)[C@@H]2OC(=O)c2ccc(-c3ccc(C(=O)O[C@@H]4C5=C(C)C6(CC6)[C@@](C)(O)C(=O)C5=CC4(C)C)cn3)nc2)C(=O)[C@](C)(O)C12CC2
62

----------
# Experiment: Cytotoxicity against HFF cells assessed as viable cells at 1 uM after 120 hrs by trypan blue exclusion assay relative to control
# Format: cell-based
# Condition Set: human, read-out: Activity
The reader will find reported viability at 120 h, 1 µM values listed item by item below.
Number only, in %; omit the unit.

Solved entries:
CC1=C2C(=CC(C)(C)[C@@H]2OC(=O)C2C3CCC(O3)C2C(=O)O[C@@H]2C3=C(C)C4(CC4)[C@@](C)(O)C(=O)C3=CC2(C)C)C(=O)[C@](C)(O)C12CC2 (stereo not given in full) [BIS(ILLUDINYL M) ENDOTHALLATE] ... 49.3
CC1=C2C(=CC(C)(C)[C@@H]2OC(=O)c2ccc(-c3ccc(C(=O)O[C@@H]4C5=C(C)C6(CC6)[C@@](C)(O)C(=O)C5=CC4(C)C)cn3)nc2)C(=O)[C@](C)(O)C12CC2 ... 47.8

Supply viability at 120 h, 1 µM value. Item: CC1=C2C(=CC(C)(C)[C@@H]2OC(=O)CCCc2ccc(N(CCCl)CCCl)cc2)C(=O)[C@](C)(O)C12CC2
47.5

Quote viability at 120 h, 1 µM reported for CC/C=C\C/C=C\C/C=C\C/C=C\C/C=C\C/C=C\CCC(=O)O[C@@H]1C2=C(C)C3(CC3)[C@@](C)(O)C(=O)C2=CC1(C)C please.
80

Determine its reported viability at 120 h, 1 µM: CC1=C2C(=CC(C)(C)[C@@H]2O)C(=O)[C@](C)(O)C12CC2
28.1

These entries and their values trace back to ChEMBL document CHEMBL1144153.
